MEASURED_TARGET: Protein arginine deiminase 4 (PAD4) (Homo sapiens, UniProt Q9UM07)
Sequence (Q9UM07 whole entry): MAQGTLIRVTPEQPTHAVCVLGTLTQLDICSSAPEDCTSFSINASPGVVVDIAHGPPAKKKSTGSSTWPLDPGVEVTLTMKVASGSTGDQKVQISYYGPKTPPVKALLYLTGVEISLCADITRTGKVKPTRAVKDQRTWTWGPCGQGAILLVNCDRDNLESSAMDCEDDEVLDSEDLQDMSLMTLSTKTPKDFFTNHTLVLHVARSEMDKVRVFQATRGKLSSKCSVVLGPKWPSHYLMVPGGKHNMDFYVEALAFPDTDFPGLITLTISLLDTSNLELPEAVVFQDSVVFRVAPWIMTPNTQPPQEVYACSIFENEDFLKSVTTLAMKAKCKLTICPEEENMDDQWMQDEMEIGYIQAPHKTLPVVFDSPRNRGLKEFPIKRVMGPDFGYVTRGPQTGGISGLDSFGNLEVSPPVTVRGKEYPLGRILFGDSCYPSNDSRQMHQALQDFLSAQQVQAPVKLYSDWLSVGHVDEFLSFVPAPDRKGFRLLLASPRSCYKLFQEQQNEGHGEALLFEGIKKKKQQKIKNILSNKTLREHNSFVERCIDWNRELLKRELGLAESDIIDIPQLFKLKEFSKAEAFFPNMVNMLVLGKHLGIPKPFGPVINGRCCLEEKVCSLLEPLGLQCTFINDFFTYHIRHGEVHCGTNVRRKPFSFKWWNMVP
RUN_DESCRIPTION: PAD4 ammonia release assay
Type: biochemical
TEST_CONTEXT: PAD4 ammonia release assay, BAEE substrate, 60 min at RT; read-out: Average IC50 Abs
pIC50: −log10 of the molar value.
MEASURED_PROPERTY: pIC50

Examples with answers:
>>> print(df.to_string())
                                   molecule  measured_property  reported_measurement
0  CCC1CNc2cccc3cc(-c4nc5cc(C(=O)N6C[C@H]7CC[C@@H]6[C@@H]7N)cc(F)c5n4C)n1c23 (stereo partly shown) [Example 72]              pIC50          6.30 to 7.00
1  COc1cc(C(=O)N2CCC[C@@H](N)C2)cc2nc(-c3cc4cccc5c4n3CCN5CCCO)n(C)c12 [Example 12]              pIC50          6.30 to 7.00
2  CC1CNc2cccc3cc(-c4nc5cc(C(=O)N6CCC[C@@H](N)C6)ccc5n4C)n1c23 (stereo partly shown) [Example 167]              pIC50          5.30 to 6.30
3  Cn1c(-c2cc3ccc(C#N)c4c3n2C(C2CC2)CN4)nc2cc(C(=O)N3C[C@H]4CC[C@@H]3[C@@H]4N)cc(F)c21 (mixture of isomers) [Example 114]              pIC50                ≥ 7.00
4  CCC1CN(CCCOC)c2cccc3cc(-c4nc5cc(C(=O)N6C[C@H]7CC[C@@H]6[C@@H]7N)cc(F)c5n4CC)n1c23 (stereo partly shown) [Example 100]              pIC50          6.30 to 7.00

Entry CCC1CN(CCCO)c2cccc3cc(-c4nc5cc(C(=O)N6C[C@H]7CC[C@@H]6[C@@H]7N)cc(F)c5n4C)n1c23 (stereo partly shown) [Example 69] needs its pIC50 filled in; supply it.
≥ 7.00

Entry CCC1CNc2nccc3cc(-c4nc5cc(C(=O)N6C[C@H](N)C[C@@H](F)C6)cc(F)c5n4C)n1c23 (stereo partly shown) [Example 136] needs its pIC50 filled in; supply it.
< 5.30

----------
MEASURED_TARGET: Protein arginine deiminase 4 (PAD4) (Homo sapiens)
RUN_DESCRIPTION: PAD4 ammonia release assay
Assay type: biochemical
TEST_CONTEXT: PAD4 ammonia release assay, BAEE substrate, 60 min at RT; read-out: Average IC50 Abs
pIC50: −log10 of the molar value.
MEASURED_PROPERTY: pIC50

Examples with answers:
>>> print(df.to_string())
                                   compound                           measured_target  measured_property  reported_measurement
0  CCn1cc(Cn2c(-c3cc4cccc5c4n3CCN5CCCOC)nc3cc(C(=O)N4C[C@H](N)C[C@@H](F)C4)cc(F)c32)cn1 [Example 41]  Protein arginine deiminase 4 (PAD4) (Homo sapiens)              pIC50          6.30 to 7.00
1  CC(C)C1CN(CCCO)c2cccc3cc(-c4nc5cc(C(=O)N6C[C@H]7CC[C@@H]6[C@@H]7N)cc(F)c5n4C)n1c23 (stereo partly drawn) [Example 103]  Protein arginine deiminase 4 (PAD4) (Homo sapiens)              pIC50          6.30 to 7.00
2  Cn1c(-c2cc3ccc4cn[nH]c4c3n2CC2CC2)nc2cc(C(=O)N3C[C@H]4CC[C@@H]3[C@@H]4N)cc(F)c21 [Example 157]  Protein arginine deiminase 4 (PAD4) (Homo sapiens)              pIC50                ≥ 7.00
3  CCC1C(=O)Nc2cccc3cc(-c4nc5cc(C(=O)N6C[C@H]7CC[C@@H]6[C@@H]7N)cnn5c4C)n1c23 (stereo partly drawn) [Example 137]  Protein arginine deiminase 4 (PAD4) (Homo sapiens)              pIC50          5.30 to 6.30

Entry COc1cc(C(=O)N2C[C@H](N)C[C@@H](F)C2)cc2nc(-c3cc4cccc5c4n3CCN5CCCO)n(OC)c12 [Example 63] needs its pIC50 filled in; supply it.
< 5.30

Entry COc1cc(C(=O)N2CC(F)(F)C3(CNC3)C2)cc2nc(-c3cc4cccc5c4n3CCN5CCCO)n(CC3CC3)c12 [Example 57] needs its pIC50 filled in; supply it.
< 5.30

----------
MEASURED_TARGET: Protein arginine deiminase 4 (PAD4) (Homo sapiens, UniProt Q9UM07)
RUN_DESCRIPTION: PAD4 ammonia release assay
Assay type: biochemical
TEST_CONTEXT: PAD4 activity comparison; read-out: PAD4 Ammonia assay IC50
MEASURED_PROPERTY: IC50 (µM)

Examples with answers:
>>> df
                                   molecule                           measured_target  reported_measurement
0  CC1COc2cccc3cc(-c4nc5cc(C(=O)N6CCC[C@@H](N)C6)ccc5n4C)n1c23 (stereo partly drawn) [B, reference compound]  Protein arginine deiminase 4 (PAD4) (Homo sapiens, UniProt Q9UM07)                  7.28
1  CCC1CNc2cccc3cc(-c4nc5cc(C(=O)N6C[C@H]7CC[C@@H]6[C@@H]7N)cc(OC)c5n4C)n1c23 (stereo partly drawn)  Protein arginine deiminase 4 (PAD4) (Homo sapiens, UniProt Q9UM07)                 0.207
2  CC(C)C1CNc2cccc3cc(-c4nc5cc(C(=O)N6C[C@H]7CC[C@@H]6[C@@H]7N)cc(F)c5n4C)n1c23 (stereo partly drawn)  Protein arginine deiminase 4 (PAD4) (Homo sapiens, UniProt Q9UM07)                  0.13

a. COc1cc(C(=O)N2CCC[C@@H](N)C2)cc2nc(-c3cc4cccc5c4n3C(C)CN5)n(C)c12 (stereo partly drawn)
b. CC1CNc2cccc3cc(-c4nc5cc(C(=O)N6C[C@H]7CC[C@@H]6[C@@H]7N)ccc5n4C)n1c23 (stereo partly drawn)
Please indicate which item has the smaller measured IC50: a versus b In your reply, give the label of the chosen option.
b
(b: 0.55 µM, a: 2.6 µM)

P. CC1CNc2cccc3cc(-c4nc5cc(C(=O)N6CCC[C@@H](N)C6)ccc5n4C)n1c23 (stereo partly drawn)
Q. Cn1c(-c2cc3cccc4c3n2CCN4)nc2cc(C(=O)N3CCC[C@@H](N)C3)ccc21
R. Cn1c(-c2cc3cccc4c3n2CCN4)nc2cc(C(=O)N3C[C@H]4CC[C@@H]3[C@@H]4N)ccc21
In this exercise, place the 3 molecules in ascending sequence of their recorded IC50. API: response body holds the labels in the requested order.
R, P, Q
(R: 2.31 µM, P: 4.09 µM, Q: 9.53 µM)

----------
Let's look at some compounds and their measured IC50.
MEASURED_TARGET: Protein arginine deiminase 4 (PAD4) (Homo sapiens, UniProt Q9UM07)
RUN_DESCRIPTION: PAD4 ammonia release assay
Assay type: biochemical
TEST_CONTEXT: PAD4 ammonia release assay, BAEE substrate, 60 min at RT; read-out: Average IC50 Abs

Examples with answers:
In [3]: df
Out[3]:
                                   compound  measured_property  reported_measurement
0  C#CCn1c(-c2cc3cccc4c3n2C(CC)CN4CCCO)nc2cc(C(=O)N3C[C@H]4CC[C@@H]3[C@@H]4N)cc(F)c21 (stereo partly drawn)               IC50         100 to 500 nM
1  COc1cc(C(=O)N2C[C@H](N)CC(F)(F)C2)cc2nc(-c3cc4cccc5c4n3CCN5CCCO)n(C)c12               IC50        500 to 5000 nM
2  COc1cc(C(=O)N2C[C@H]3CC[C@@H]2[C@@H]3N)cc2nc(-c3cc4cccc5c4n3CCN5CCCNC(=O)NC3CC3)n(C)c12               IC50        500 to 5000 nM

Entry CC[C@H]1CN(CCCO)c2cccc3cc(-c4nc5cc(C(=O)N6C[C@H]7CC[C@@H]6[C@@H]7N)cc(F)c5n4C)n1c23 needs its IC50 filled in; supply it.
≤ 100 nM

Entry Cn1c(-c2cc3ccc(C#N)c4c3n2[C@H](C2CC2)CN4)nc2cc(C(=O)N3C[C@H]4CC[C@@H]3[C@@H]4N)cc(F)c21 (single isomer, unassigned) needs its IC50 filled in; supply it.
500 to 5000 nM

Entry COc1cc(C(=O)N2C[C@H](N)C[C@@H](F)C2)cc2nc(-c3cc4cccc5c4n3CCN5CCCO)n(Cc3cnn(C)c3)c12 needs its IC50 filled in; supply it.
≤ 100 nM
